Quick reference for AC50 among some compounds
test system: Plasmodium falciparum Dd2 asexual blood stage parasites; experiment: microbe, parasite or virus in culture; design: species or system Plasmodium falciparum Dd2 in human erythrocytes; single determination (one 11-point concentration-response curve); settings: Plasmodium falciparum, DD2, Erythrocyte, 72 h; read-out: AC50
reportedMetric: AC50 (µM)

compound=COc1ccc(OC)c(CN2CC(Oc3ccccc3C(=O)NCc3ccccc3)C2)c1 reportedmetric=AC50 val=13.3
compound=Oc1ccc(Cl)cc1CN1CCN(Cc2ccccc2)CC1 reportedmetric=AC50 val=0.944
compound=Cc1cc(O)c(-c2cc(C(=O)Nc3ccc(S(=O)(=O)N4CCOCC4)cc3)[nH]n2)cc1C reportedmetric=AC50 val=1.68
compound="CCOC(=O)c1c([S+](=O)([O-])N2CCCC(C(=O)N3CCN(c4cc(C)ccc4C)CC3)C2)c(C)n(C)c1C (stereo not shown)" reportedmetric=AC50 val=1.5
compound=Cc1cc(NCc2ccco2)nc2cc(O)ccc12 reportedmetric=AC50 val=6.68
compound="COCC1CN(C)CC12CCN([S+](=O)([O-])c1ccc(F)c(Cl)c1)CC2 (stereo not shown)" reportedmetric=AC50 val=13.3
compound=CC1CCN(c2ccc(C(=O)NCc3ccco3)cc2[N+](=O)[O-])CC1 reportedmetric=AC50 val=6.68
compound=CC(=O)Nc1cccc(OCc2nnc(C(=O)N3CCC[C@@H]3C(c3ccccc3)c3ccccc3)n2-c2ccccc2)c1 reportedmetric=AC50 val=10.6
compound=Cc1cc(C)c(CNC(=O)c2cc(-c3ccnn3C)cc3c2OCCN3C(C)C)c(=O)[nH]1 reportedmetric=AC50 val=15.3
compound=O=c1cc(-c2cccnc2)oc2c(-c3ccccc3Oc3ccccc3)nccc12 reportedmetric=AC50 val=17.2
compound=CC1=C[C@@H](CN(C)C)[C@H](C(C)C)C[C@H]1Cc1nc2ncc(Cl)cc2[nH]1 reportedmetric=AC50 val=21.7
compound=Cn1nc(C(F)(F)F)c(-c2cccc(C(F)(F)F)c2)c1NC(=O)Nc1ccc(F)cc1 reportedmetric=AC50 val=2.37
compound="OC(CNCC(c1ccco1)N1CCCCC1)c1ccccc1 (stereo not shown)" reportedmetric=AC50 val=5.96
compound="CCOc1ccccc1NC(C)C(=O)Nc1cc(C(F)(F)F)ccc1N1CCOCC1 (stereo not shown)" reportedmetric=AC50 val=2.66
compound="Cc1ccc(CN2C3CCCC2CC(NC(=O)Nc2cccc(F)c2)C3)cc1 (stereo not shown)" reportedmetric=AC50 val=10.6
compound=CCOC(=O)c1c(CN(CC)CC)n(C)c2cc(Br)c(O)cc12 reportedmetric=AC50 val=9.44
compound=COc1cc(C#Cc2c(-c3cncn3C)n(C)c3ccc(-c4ccc5[nH]ccc5c4)cc23)cc(OC)c1 reportedmetric=AC50 val=2.37
compound=CCCc1nnc(C[C@@H]2C[C@@H](C(C)C)[C@H](CN3CCC[C@H]3CO)C=C2C)o1 reportedmetric=AC50 val=17.2
compound=COc1ccc(CNC[C@H]2O[C@H](Cc3cc(-c4ccc(OC)cc4)on3)CC[C@@H]2O)cc1 reportedmetric=AC50 val=10.6
compound=CCc1c(C)[nH]c2ccccc2c1=O reportedmetric=AC50 val=10.6
compound=C#Cc1ccc(C(=O)Nc2ccc(N3CCC(C)CC3)c(C(N)=O)c2)cc1 reportedmetric=AC50 val=6.68
compound="COc1cccc([S+](=O)([O-])N2CCC3(CC2)CC(N(C)Cc2ccccc2)CCO3)c1 (stereo not shown)" reportedmetric=AC50 val=8.41
compound=COc1ccc(Nc2cc(C)nc(NCc3ccccc3)n2)cc1 reportedmetric=AC50 val=13.3
compound=N#Cc1cc(C#N)c(N2CCN(c3cccc(Cl)n3)CC2)nc1N reportedmetric=AC50 val=3.35
compound=Cc1cccc(C(=O)N2CCc3cc(CNC(=O)c4ccc(Br)o4)ccc32)c1 reportedmetric=AC50 val=9.44
compound="O=C(c1ccccc1OCC1CCCN(Cc2ccncc2F)C1)N1CCCC1 (stereo not shown)" reportedmetric=AC50 val=10.6
compound="CCCNCC(O)COc1ccccc1C(=O)CCc1ccccc1 (stereo not shown)" reportedmetric=AC50 val=0.841
compound=CCOc1ccc(NC(=O)c2ccc(-c3nnc4ccc(NC(=O)C5CC5)cn34)cc2)cc1 reportedmetric=AC50 val=2.99
compound=COc1ccc(-c2cc(-c3cccc(NC(C)=O)c3)cn3cncc23)cn1 reportedmetric=AC50 val=21.7
compound=CC(C)CN(Cc1cc(=O)oc2cc3c(cc12)CCCC3)CC(C)C reportedmetric=AC50 val=15
compound=O=S(=O)(c1ccc(F)cc1)N1CCN(C(S)=NC2CC2)CC1 reportedmetric=AC50 val=3.35
compound=O=C(NNc1nc(-c2ccc(Br)cc2)cs1)c1ccco1 reportedmetric=AC50 val=5.31
compound=CC(C)c1nc2c(c(-c3ccc(O)cc3)n1)CCN(Cc1ccc(C(F)(F)F)cc1)CC2 reportedmetric=AC50 val=5.31
compound=COc1cc2nc(Nc3ccc(C)c(C)c3)nc(N)c2cc1OC reportedmetric=AC50 val=0.75
